assay name: Cytotoxicity against human MCF-10A cells incubated for 48 hrs by MTT assay
Format: toxicity, cell-based
metric name: IC50 at 48 h (µM)
Answer in µM, number only, no unit symbol.

The reported IC50 at 48 h of the compound COC1OC(=O)C(Cl)=C1N1CCN(C(=O)c2cc(OC(C)=O)c3c(c2)C(=O)c2cccc(OC(C)=O)c2C3=O)CC1 (stereo unspecified) was 17

---

Test system: A549
assay name: Anticancer activity against human A549 cells incubated for 48 hrs by MTT assay
Type: functional, cell-based
test settings: A549, 48 h
API: label(entry) gives Y if the entry's IC50 is strictly smaller than 100 µM; on equality or larger values it gives N.

Reference set (4 entries):
compound	measured on	category
CC1(C)C2CCC1(C)[C@H](OC1OC(=O)C(Cl)=C1N1CCN(C(=O)c3cc(O)c4c(c3)C(=O)c3cccc(O)c3C4=O)CC1)C2 (stereo not given in full)	A549	N
CC1(C)C2CCC1(C)[C@H](OC1OC(=O)C(Br)=C1N1CCN(C(=O)c3cc(O)c4c(c3)C(=O)c3cccc(O)c3C4=O)CC1)C2 (stereo not given in full)	A549	N
CC(=O)Oc1cccc2c1C(=O)c1c(OC(C)=O)cc(C(=O)N3CCN(C4=C(Cl)C(=O)OC4O[C@@H]4CC5CCC4(C)C5(C)C)CC3)cc1C2=O (stereo not given in full)	A549	Y
CC(C)[C@@H]1CC[C@@H](C)C[C@H]1O[C@H]1OC(=O)C(Cl)=C1N1CCN(C(=O)c2cc(O)c3c(c2)C(=O)c2cccc(O)c2C3=O)CC1	A549	Y

Field: next compound
Consider O=C(O)c1cc(O)c2c(c1)C(=O)c1cccc(O)c1C2=O [RHEIN] . Does its IC50 lie strictly below 100 µM?
N

---

assay name: Selectivity index, ratio of IC50 for human WI-38 cells to IC50 for human A549 cells
Assay type: toxicity
test settings: WI-38 cells versus A549 cells, read-out: Ratio IC50
metric name: selectivity ratio

Previously resolved entries follow.
compound	data value
CC(=O)Oc1cccc2c1C(=O)c1c(OC(C)=O)cc(C(=O)N3CCN(C4=C(Br)C(=O)O[C@@H]4O[C@@H]4C[C@H](C)CC[C@H]4C(C)C)CC3)cc1C2=O	1
CC1(C)C2CCC1(C)[C@H](OC1OC(=O)C(Cl)=C1N1CCN(C(=O)c3cc(O)c4c(c3)C(=O)c3cccc(O)c3C4=O)CC1)C2 (some centres not stated)	2
CC(C)[C@@H]1CC[C@@H](C)C[C@H]1O[C@H]1OC(=O)C(Cl)=C1N1CCN(C(=O)c2cc(O)c3c(c2)C(=O)c2cccc(O)c2C3=O)CC1	6
CC(=O)Oc1cccc2c1C(=O)c1c(OC(C)=O)cc(C(=O)N3CCN(C4=C(Br)C(=O)OC4O[C@@H]4CC5CCC4(C)C5(C)C)CC3)cc1C2=O (some centres not stated)	1
CC(=O)Oc1cccc2c1C(=O)c1c(OC(C)=O)cc(C(=O)N3CCN(C4=C(Cl)C(=O)O[C@@H]4O[C@@H]4C[C@H](C)CC[C@H]4C(C)C)CC3)cc1C2=O	1

The reported selectivity ratio of the compound `CC(C)[C@@H]1CC[C@@H](C)C[C@H]1O[C@H]1OC(=O)C(Br)=C1N1CCN(C(=O)c2cc(O)c3c(c2)C(=O)c2cccc(O)c2C3=O)CC1` was 1

The reported selectivity ratio of the compound COC1OC(=O)C(Cl)=C1N1CCN(C(=O)c2cc(OC(C)=O)c3c(c2)C(=O)c2cccc(OC(C)=O)c2C3=O)CC1 (configuration not stated) was 12

The reported selectivity ratio of the compound CC1(C)C2CCC1(C)[C@H](OC1OC(=O)C(Br)=C1N1CCN(C(=O)c3cc(O)c4c(c3)C(=O)c3cccc(O)c3C4=O)CC1)C2 (some centres not stated) was 1

The reported selectivity ratio of the compound CC(=O)Oc1cccc2c1C(=O)c1c(OC(C)=O)cc(C(=O)N3CCN(C4=C(Cl)C(=O)OC4O[C@@H]4CC5CCC4(C)C5(C)C)CC3)cc1C2=O (some centres not stated) was 1

The reported selectivity ratio of the compound Nc1ccn([C@@H]2O[C@H](CO)[C@@H](O)[C@@H]2O)c(=O)n1 [CYTARABINE] was 2

The reported selectivity ratio of the compound O=C(O)c1cc(O)c2c(c1)C(=O)c1cccc(O)c1C2=O [RHEIN] was 1

The reported selectivity ratio of the compound COC1OC(=O)C(Br)=C1N1CCN(C(=O)c2cc(OC(C)=O)c3c(c2)C(=O)c2cccc(OC(C)=O)c2C3=O)CC1 (configuration not stated) was 7
